Numbers sourced from PubChem BioAssay (NCI).

System: SF-268 CNS
protocol-description: NCI tumour cell line growth inhibition, 48 h
outcome-measure: TGI

>>> recorded_value("O=C(O)C1Cc2ccccc2OC1=O (stereo not drawn)")
"> 100 µM"
>>> recorded_value("CCN(CC)CCNC(=O)c1cc2cc(NC(=O)c3cc4cc(NC(=O)c5cc6cc([N+](=O)[O-])ccc6[nH]5)ccc4[nH]3)ccc2[nH]1")
"> 100 µM"
>>> recorded_value("CCOc1ccc(-n2c(=O)n3c(Nc4ccc(Cl)cc4)nc4c(c(=O)n(C)c(=O)n4C)n3c2=O)cc1")
"> 100 µM"
>>> recorded_value("COC(=O)C1(Cc2ccc3c(c2)CCC3)Cc2cc3c(cc2C1=O)CCC3 (stereo not drawn)")
"> 46.4 µM"
>>> recorded_value("C=CC[C@@]1(C#N)C[C@H](C[C@]2(C#N)C[C@H](CCl)OC(C)(C)O2)OC(C)(C)O1")
"> 100 µM"
>>> recorded_value("CC(C)=CCC[C@@H](C)C1=C(O)C(Nc2ccccc2F)=C(C)C(=O)C1=O")
"> 54 µM"
>>> recorded_value("[N-]=[N+]=NC(c1cn(C2CC(O)C(CO)O2)c(=O)[nH]c1=O)C(I)I (stereo not drawn)")
"> 100 µM"
>>> recorded_value("CC(=O)[CH-]C(=O)c1ccccc1.CC(=O)[CH-]C(=O)c1ccccc1.CC12CC3(C)CC(C)(C1)CC([O-])(C2)C3.CC[O-].[Ti+4]")
"45.4 µM"
>>> recorded_value("N#CNc1nc(C(=O)Nc2ccc(Cl)cc2)cc(-c2ccccc2)n1")
"> 100 µM"
>>> recorded_value("CC(C)(CO)NC(=O)c1cccc(C(=O)NC(C)(C)CO)c1Br")
"> 100 µM"
>>> recorded_value("CCC[CH2][Sn]1([CH2]CCC)[O]CC([CH2][Sn]([c]2ccccc2)([c]2ccccc2)[c]2ccccc2)[O]1 (stereo not drawn)")
"19 µM"
>>> recorded_value("Cc1ccc(N2C(=O)C(O)=C(C(=O)C(C)(C)C)C2c2ccc([N+](=O)[O-])cc2)cc1 (stereo not drawn)")
"47.8 µM"
>>> recorded_value("CCOC(=O)CCc1c(C)c2c(O)cc(O)cc2oc1=O")
"> 100 µM"
>>> recorded_value("O=C1C(Nc2cccc(O)c2)=C(Sc2ccc(Cl)cc2)C(=O)N1Cc1ccccc1")
"44.6 µM"
>>> recorded_value("Cc1cc(NS(=O)(=O)c2ccc(NC(=O)c3cccc4c(NNc5ccc(S(N)(=O)=O)cc5)c5ccccc5nc34)cc2)no1")
"> 100 µM"
>>> recorded_value("COc1ccc2nc(C3=CN(C4OC(CO)C(O)C(O)C4O)C4C=CC=CC34)sc2c1 (stereo not drawn)")
"> 100 µM"
>>> recorded_value("C[C@@]1(CBr)C[C@@](C)(/C=C/Cl)[C@@H](Cl)C[C@H]1Cl")
"30.1 µM"
>>> recorded_value("COC(=O)C1=C2CO[C@@H]3C[C@H]4C(C)(C)CCC[C@]4(C)C(=CC1)[C@]23C")
"> 100 µM"

----------
Test system: U251 CNS
protocol-description: NCI tumour cell line growth inhibition, 48 h
Reported TGI values are given for each entry in this list.
outcome-measure: TGI

>>> recorded_value("O=C(Nc1ccc(Cl)cc1)c1cc(S(=O)(=O)NC2=NC(c3ccccc3)c3cc(Cl)ccc3N2)c(SSc2cc(Cl)c(C(=O)Nc3ccc(Cl)cc3)cc2S(=O)(=O)NC2=NC(c3ccccc3)c3cc(Cl)ccc3N2)cc1Cl (configuration not stated)")
"> 100 µM"
>>> recorded_value("COc1ccc(NCc2c(O)ccc3ccccc23)cc1")
"> 100 µM"
>>> recorded_value("COC(=O)c1cccc2c1Oc1ccccc1S2")
"> 100 µM"
>>> recorded_value("COC(=O)Nc1nc2ccc(NS(=O)(=O)c3ccc(F)cc3)cc2[nH]1")
"> 100 µM"
>>> recorded_value("Cn1c2cc(Cl)ccc2c2ccc3c(c21)C(=O)C=CC3=O")
"> 100 µM"
>>> recorded_value("c1ccc([P+](CCC[P+](c2ccccc2)(c2ccccc2)c2ccccc2)(c2ccccc2)c2ccccc2)cc1")
"> 100 µM"
>>> recorded_value("O=C(NN1C(=O)C(Cl)C1c1ccc([N+](=O)[O-])cc1)c1ccccc1O (configuration not stated)")
"> 100 µM"
>>> recorded_value("CC(=O)NNc1nc(C)c(C(/C=C/c2ccc(Cl)cc2)=N/NC(=S)NN)s1")
"> 100 µM"
>>> recorded_value("CN(C)C(=S)/N=c1\\ssc(=S)n1Cc1ccccn1")
"> 100 µM"
>>> recorded_value("C=CC[C@@]1(C#N)C[C@H](C[C@]2(C#N)C[C@H](CCl)OC(C)(C)O2)OC(C)(C)O1")
"> 100 µM"
>>> recorded_value("CCC(c1nc2ccccc2c(=O)n1NC(=O)C(C)(C)C)C1(O)CCCCC1 (configuration not stated)")
"> 100 µM"
>>> recorded_value("O=C1C(Cl)=C(Nc2ccc3c(c2NC2=C(Cl)C(=O)c4ccccc4C2=O)C(=O)c2ccccc2C3=O)C(=O)c2ccccc21")
"9.38 µM"
>>> recorded_value("O=C(O)CCc1nc(-c2ccccc2)c(-c2ccccc2)o1")
"> 100 µM"
>>> recorded_value("COC(=O)NN=C1C(C)(C)C(=NNC(=O)OC)C1(C)C")
"> 100 µM"
>>> recorded_value("O=C1/C(=C/c2ccc(C(F)(F)F)cc2)COc2ccc(O)cc21")
"3.06 µM"
>>> recorded_value("C/C(CC(=O)Nc1ccc(NC(=O)/C(C)=N/NS(=O)(=O)c2ccc(C)cc2)cc1)=N\\NS(=O)(=O)c1ccc(C)cc1")
"> 100 µM"
>>> recorded_value("C=C(C)C1CCC2(CO)C(O)CC3(C)C(CCC4C5(C)CCC(O)C(C)(C)C5CCC43C)C12 (configuration not stated)")
"9.96 µM"
>>> recorded_value("Cc1[nH]ccc2cc3nc4ccccc4c3cc12")
"12.4 µM"
>>> recorded_value("O=C(Nc1ccc([N+](=O)[O-])cc1)c1cc2ccccc2cc1O")
"13.1 µM"
>>> recorded_value("Cc1ccc(C(=O)NC(C)C)cc1N=NN(C)C")
"> 100 µM"
>>> recorded_value("FC(F)(F)c1nc2cc(SSc3cc4nc(C(F)(F)F)[nH]c4cc3Cl)c(Cl)cc2[nH]1")
"> 100 µM"
>>> recorded_value("Cc1cc(C)c(N)c(C)c1N")
"> 100 µM"
>>> recorded_value("OCCCCC#Cc1ccccc1C#Cc1cccs1")
"27 µM"
>>> recorded_value("OC(C1CCCC1=N/N=C1/CCCC1C(O)(C(F)(F)Cl)C(F)(F)Cl)(C(F)(F)Cl)C(F)(F)Cl (configuration not stated)")
"> 10 µM"
>>> recorded_value("CC[S+](C)c1ccc(-c2c3nc(c(-c4ccc([S+](C)CC)cc4)c4ccc([nH]4)c(-c4ccc([S+](C)CC)cc4)c4nc(c(-c5ccc([S+](C)CC)cc5)c5ccc2[nH]5)C=C4)C=C3)cc1 (configuration not stated)")
"> 100 µM"
>>> recorded_value("CCOC(=S)SC/C(=N\\OC(C)(C)OC)c1ccccc1")
"> 100 µM"
>>> recorded_value("CCN(CC)CCNc1ccc2nnn3c4ccc(OC(C)=O)cc4c(=O)c1c23")
"15.5 µM"
